Biological target: Angiotensin II receptor (AT-1) type-1 (Rattus norvegicus, UniProt P29089+P25095)
Experiment: Compound was tested for inhibition of 125 I-Angiotensin II specific binding to rat mesenteric arteries
Format: protein assay
Label satisfied when IC50 < 0.04 µM; otherwise not satisfied.

>  <Molecule>
CCCCc1ncc(CN[C@@H](C(=O)O)C(C)c2ccccc2)n1Cc1ccc(C(=O)O)cc1 (stereo partly drawn)

>  <Category>
satisfied

$$$$
>  <Molecule>
CCCCc1ncc(CN[C@H](C(=O)O)C(C)c2ccccc2)n1Cc1ccc(C(=O)O)cc1 (stereo partly drawn)

>  <Category>
not satisfied

$$$$
>  <Molecule>
CCCCc1ncc(CN(CC(=O)O)Cc2ccccc2)n1Cc1ccc(C(=O)O)cc1

>  <Category>
satisfied

$$$$
>  <Molecule>
CCCCc1ncc(CN(CC(=O)O)Cc2cccs2)n1Cc1ccc(C(=O)O)cc1

>  <Category>
not satisfied

$$$$
>  <Molecule>
CCCCc1ncc(CN[C@H](Cc2ccccc2)C(=O)O)n1Cc1ccc(C(=O)O)cc1

>  <Category>
satisfied

$$$$
>  <Molecule>
CCCCc1ncc(CN[C@@H](Cc2ccccc2)C(=O)O)n1Cc1ccc(C(=O)O)cc1

>  <Category>
not satisfied

$$$$
>  <Molecule>
CCCCc1ncc(CN[C@H](Cc2cccs2)C(=O)O)n1Cc1ccc(C(=O)O)cc1

>  <Category>
satisfied

$$$$
>  <Molecule>
CCCCc1ncc(CN[C@@H](Cc2cccs2)C(=O)O)n1Cc1ccc(C(=O)O)cc1

>  <Category>
not satisfied

$$$$
